Target: Amine oxidase [flavin-containing] B (Homo sapiens, UniProt P27338)
Sequence (P27338 whole entry): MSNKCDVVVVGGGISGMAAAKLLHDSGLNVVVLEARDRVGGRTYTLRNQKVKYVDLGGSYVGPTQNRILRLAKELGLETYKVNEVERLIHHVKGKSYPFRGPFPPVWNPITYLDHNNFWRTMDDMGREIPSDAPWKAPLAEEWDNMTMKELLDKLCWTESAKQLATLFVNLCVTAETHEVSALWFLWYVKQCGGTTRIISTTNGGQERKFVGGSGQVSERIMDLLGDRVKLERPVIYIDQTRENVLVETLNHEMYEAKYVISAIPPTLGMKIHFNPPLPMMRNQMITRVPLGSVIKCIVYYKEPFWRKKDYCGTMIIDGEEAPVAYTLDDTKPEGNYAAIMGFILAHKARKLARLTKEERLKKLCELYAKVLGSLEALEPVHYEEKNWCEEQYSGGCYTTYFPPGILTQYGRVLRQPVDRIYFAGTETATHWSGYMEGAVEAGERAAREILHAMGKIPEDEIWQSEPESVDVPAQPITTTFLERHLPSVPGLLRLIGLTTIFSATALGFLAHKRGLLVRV
Experiment: Inhibition of human MAO-B using tyramine as substrate preincubated for 10 mins followed by substrate addition and measured after 30 mins by fluorometric method
What IC50 was measured for each of the following?
Answers are plain numbers, in nM.

>  <Structure>
Cc1ccc(NC(=O)c2c(OCc3ccccc3)ccc3c(=O)c(C)c(C)oc23)cc1

>  <Target desc>
Amine oxidase [flavin-containing] B (Homo sapiens, UniProt P27338)

>  <Result number>
100

$$$$

# ---- query compound ----
Identify measured IC50 obtained with Amine oxidase [flavin-containing] B (Homo sapiens, UniProt P27338) for COc1ccc(NC(=O)c2c(OCc3ccccc3)ccc3c(=O)c(C)c(C)oc23)cc1 .
100
